ASSAY OVERVIEW: Toxicity in ip dosed Charles River CD-1 albino mouse measured within 5 mins
Assay type: organism-based
EXPERIMENTAL CONTEXT: CD-1, mouse, in vivo
Please go through the items and note down their LD50 at 5 min.
Answers are plain numbers, in mg/kg.

// each compound listed below needs its LD50 at 5 min
1. CCCCC[N+](C)(C)CC(=O)c1ccc(-c2ccc(C(=O)C[N+](C)(C)CCCCC)cc2)cc1.[Br-].[Br-]
2. CCOCC[N+](C)(C)CC(=O)c1ccc(-c2ccc(C(=O)C[N+](C)(C)CCOCC)cc2)cc1.[Br-].[Br-]
3. C[N+]1(C)CCOC(O)(c2ccc(-c3ccc(C4(O)C[N+](C)(C)CCO4)cc3)cc2)C1 (stereo not given)
4. CC(=O)OCC[N+](C)(C)CC(=O)c1ccc(-c2ccc(C(=O)C[N+](C)(C)CCOC(C)=O)cc2)cc1.[Br-].[Br-]
5. CC(=O)CCC[N+](C)(C)CC(=O)c1ccc(-c2ccc(C(=O)C[N+](C)(C)CCCC(C)=O)cc2)cc1.[Br-].[Br-]

Data returned:
1. 5.6
2. 1.84
3. 0.13
4. 0.125
5. 3.1

// data source = ChEMBL document CHEMBL3272057
